Test system: PC14
assay-remarks: Cell-based assay, anti-proliferative activity (Cell Counting Kit-8, 72 hours)
run-conditions: Homo sapiens, PC-14; PC14 cells, 72 hours, Cell Counting Kit-8; read-out: IC50 (μM) PC14
Lab note - cut at 0.7 µM for IC50: Yes if strictly below, No if not.

Worked examples follow.
Query: Is IC50 strictly under 0.7 µM for the entry `COc1cc(OC)c(-c2cn3ccc(NC(=O)[C@@H]4CCCN4C)cc3n2)cc1Cl` ?
Response: No

Query: How about `COc1cc(OC)c(-c2cn3ccc(N4CCN(c5ccnc(N)n5)CC4)cc3n2)cc1Cl` ?
Response: Yes

Query: Try the compound `COc1cc(OC)c(-c2nc3cc(N4CCN(C(=O)OC(C)(C)C)CC4)ccn3c2I)cc1Cl`
Response: Yes

Now take the following compound into account.
Query: Input `COc1cc(C)c(Cl)cc1-c1cn2ccc(N3CCN(S(=O)(=O)C4CC4)CC3)cc2n1` ; condition: IC50 strictly below 0.7 µM. Does it hold?
Response: No

###

Test system: CCD-18Co
assay-remarks: Cell-based assay, anti-proliferative activity (Cell Counting Kit-8, 72 hours)
run-conditions: Homo sapiens; CCD-18Co cells, 72 hours, Cell Counting Kit-8; read-out: IC50 (μM) CCD-18Co
Below: a set of entries, each annotated with reported IC50.
Please give the number followed by its unit.

Answered cases to consult:
Query: May I ask what IC50 has been recorded for COc1cc(OC)c(-c2cn3ccc(OC4CCN(S(=O)(=O)c5nccn5C)CC4)cc3n2)cc1Cl [Example 288] ?
Response: 1.5 µM

Query: Let us now turn to COc1cc(OC)c(-c2cn3ccc(N4CC[C@H](NCc5ccccn5)C4)cc3n2)cc1Cl [Example 299]
Response: 5.5 µM

Query: And for COc1cc(OC)c(-c2cn3ccc(OC4CCN(S(=O)(=O)c5cccs5)CC4)cc3n2)cc1Cl [Example 280] ?
Response: 1.7 µM

Query: Entry COc1cc(OC)c(-c2cn3ccc(N4CCN(c5ccnc(N)n5)CC4)cc3n2)cc1Cl [Example 279] please
Response: 0.33 µM

Query: Also need COc1cc(OC)c(-c2cn3ccc(N4CCN(c5ccnc(N6CCCCC6)n5)CC4)cc3n2)cc1Cl [Example 295] , thanks.
Response: 1.3 µM

Query: # repeat for CCc1cc(OC)c(Cl)cc1-c1cn2ccc(N3CCNCC3)cc2n1 [Example 260]
Response: 3.5 µM

New cases:
Query: Field request: IC50 | item: COc1cc(C)c(-c2cn3ccc(N4CCN(S(=O)(=O)C5CC5)C(COCCN(C)C)C4)cc3n2)cc1Cl (centres unmarked) [Example 264]
Response: 5 µM

Query: And what about the molecule COc1cc(OC)c(-c2cn3ccc(N4CCN(c5nccc(N)n5)CC4)cc3n2)cc1Cl [Example 286] ?
Response: 0.71 µM

###

Test system: PC14
assay-remarks: Cell-based assay, anti-proliferative activity (Cell Counting Kit-8, 72 hours)
run-conditions: Homo sapiens, PC-14; PC14 cells, 72 hours, Cell Counting Kit-8; read-out: IC50 (μM) PC14
measure: log10 IC50 (log10 of the value in µM)
All values: log10 IC50 [µM].

A selection of reference data follows.
Query: Quick check: log10 IC50 of `COc1cc(OC)c(-c2cn3cc(NCCN)c(N4CCNCC4)nc3n2)cc1Cl` ?
Response: 1.00

Query: Queued: `COc1cc(OCCCN(C)C)c(-c2cn3ccc(N4CCCN(S(C)(=O)=O)CC4)cc3n2)cc1Cl`
Response: 0.96

Query: For `COc1cc(Cl)c(Cl)cc1-c1cn2ccc(N3CCCC3)cc2n1` then?
Response: 0.26

Others:
Query: Report log10 IC50 for `CC[C@H](C)[C@H](NC)C(=O)Nc1ccn2cc(-c3cc(Cl)c(OC)cc3OC)nc2c1` please.
Response: 0.18

Query: Try this compound too: COc1cc(OC)c(-c2cn3ccc(-c4ccc(C(=O)NCC(O)CN)cc4)cc3n2)cc1Cl (stereo not shown)
Response: 1.00

Query: Same question, `COc1cc(OC)c(-c2cn3ccc(N4CC[C@H](NCc5ccccn5)C4)cc3n2)cc1Cl` this time
Response: 0.54

Query: Also `COc1cc(OC)c(-c2cn3cc(NCCN)c(N4CCN(C(=O)OC(C)(C)C)CC4)nc3n2)cc1Cl` ?
Response: 0.98

Query: `COc1cc(OC)c(-c2cn3ccc(N4CCN(c5ccccn5)CC4)cc3n2)cc1Cl` ?
Response: 0.08

Query: # iterate: COc1cc(C)c(-c2cn3ccc(N4CCN(S(=O)(=O)C5CC5)C(COCCN(C)C)C4)cc3n2)cc1Cl (stereo not shown)
Response: 0.65

Query: Queued: `COc1cc(OC)c(-c2cn3ccc(N4CCN(c5cccc(F)n5)CC4)cc3n2)cc1Cl`
Response: -0.05

###

Reported log10 IC50 values are given for each entry in this list.
system-under-test: SUV39H2 (Homo sapiens (Human), UniProt Q9H5I1)
Sequence (Q9H5I1 whole entry): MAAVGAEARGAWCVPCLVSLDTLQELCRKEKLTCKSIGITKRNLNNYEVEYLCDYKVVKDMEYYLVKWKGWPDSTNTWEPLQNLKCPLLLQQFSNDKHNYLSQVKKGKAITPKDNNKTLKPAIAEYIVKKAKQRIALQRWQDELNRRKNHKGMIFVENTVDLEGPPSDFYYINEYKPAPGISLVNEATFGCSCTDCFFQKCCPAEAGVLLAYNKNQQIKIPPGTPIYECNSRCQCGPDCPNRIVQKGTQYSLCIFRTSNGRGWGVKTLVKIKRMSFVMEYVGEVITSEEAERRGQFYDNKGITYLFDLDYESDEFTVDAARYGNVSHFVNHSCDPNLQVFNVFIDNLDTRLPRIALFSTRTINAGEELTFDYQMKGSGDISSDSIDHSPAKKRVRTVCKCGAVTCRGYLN
run-conditions: read-out: IC50 (μM) Suv 39H2 assay; enzyme assay
Counter-ions that a name gives are not always drawn.
Remember, log10 of IC50, in µM.

Query: Would you mind telling me what log10 IC50 value was observed for `CCS(=O)(=O)N1CCCN(c2ccn3cc(-c4cc(Cl)c(OC)cc4OCCCN(C)C)nc3c2)CC1` ?
Response: -1.87

Query: Check `COc1cc(OC)c(-c2cn3ccc(N4CCN(P(=O)(OC)OC)CC4)nc3n2)cc1Cl` too.
Response: -1.95

Query: Next: `COc1cc(OC)c(-c2cn3cc(NCCN)c(N4CCCC4)cc3n2)cc1Cl`
Response: -2.03

Query: Next molecule: `CCc1cc(OC)c(Cl)cc1-c1cn2ccc(N3CCN(S(=O)(=O)C4CC4)CC3)cc2n1`
Response: -1.02

Query: Try the molecule `COc1cc(OC)c(-c2cn3ccc(N4CCN(CCCC(=O)O)CC4)cc3n2)cc1Cl`
Response: -2.20

Query: Next entry: `COc1cc(OC)c(-c2cn3ccc(N4CCC(NC(=O)C(C)(C)C)CC4)cc3n2)cc1Cl`
Response: -2.11

Query: Next entry: `COc1cc(OC)c(-c2cn3ccc(N4CCCN(S(=O)(=O)C(F)(F)F)CC4)cc3n2)cc1Cl`
Response: -1.43

Query: Next: `COc1cc(OC)c(-c2cn3ccc(N4CCNCC4)nc3n2)cc1Cl`
Response: -1.28

Query: Follow-up item: COc1cc(OC)c(-c2cn3ccc(N4CCN(S(=O)(=O)C5CC5)C(COCCN(C)C)C4)cc3n2)cc1Cl (centres unmarked)
Response: -2.06

Query: Now try COc1cc(OC)c(-c2cn3ccc(C)cc3n2)cc1Cl [Example 76, hydrobromide] .
Response: -1.18

Query: Check `COc1cc(OCCCN(C)C)c(-c2cn3ccc(N4CCN(S(C)(=O)=O)CC4)cc3n2)cc1Cl` too.
Response: -1.90

Query: Try this molecule too: `CCS(=O)(=O)N1CCCN(c2ccn3cc(-c4cc(Cl)c(OC)cc4OC)nc3c2)CC1`
Response: -2.25

Query: Same for `COc1cc(OC)c(-c2cn3ccc(N(C)CCN)cc3n2)cc1Cl`
Response: -2.23

Query: Now give it for COc1cc(OC)c(-c2cn3ccc(N4CCC(NC(=O)OC(C)(C)C)C4)cc3n2)cc1C#N (centres unmarked) too.
Response: -2.12

###

system-under-test: SUV39H2 (Homo sapiens (Human), UniProt Q9H5I1)
run-conditions: read-out: IC50 (μM) Suv 39H2 assay; enzyme assay
measure: IC50 (µM)
Expressed in µM, but write only the number.

Example entries begin here.
Query: What reported IC50 corresponds to `COc1cc(OC)c(-c2cn3ccc(N4CCCC4)cc3n2)cc1C#N` on SUV39H2 (Homo sapiens (Human), UniProt Q9H5I1)?
Response: 0.00371

Query: Same question for `COc1cc(OC)c(-c2cn3ccc(N4CCN(S(=O)(=O)C(C)C)CC4)cc3n2)cc1Cl` please.
Response: 0.0143

Query: Also check `COc1cc(OC)c(-c2cn3ccc(NCCN4CCOCC4)cc3n2)cc1Cl`
Response: 0.0165

Query: // next record COc1cc(OC)c(-c2cn3ccc(N4CCNC(CO)C4)cc3n2)cc1Cl (centres unmarked)
Response: 0.0115

Query: And then `COc1cc(OC)c(-c2cn3ccc(N4CCC(N)CC4)cc3n2)cc1Cl` , what is it?
Response: 0.0133

Query: Next compound: `COC(=O)CCCN1CCN(c2ccn3cc(-c4cc(Cl)c(OC)cc4OC)nc3c2)CC1`
Response: 0.0113

Query: Quick one: `COc1cc(OC)c(-c2cn3ccc(N4CCN(C(=O)OC(C)(C)C)CC4)nc3n2)cc1Cl`
Response: 0.0738

Query: `CCS(=O)(=O)N1CCN(c2ccn3cc(-c4cc(Cl)c(OC)cc4OC)nc3n2)CC1` , same question.
Response: 0.0306

New cases:
Query: Write down the reported IC50 of COc1cc(OC)c(-c2cn3ccc(N4CCC(NC(N)=O)C4)cc3n2)cc1Cl (centres unmarked) , test system: SUV39H2 (Homo sapiens (Human), UniProt Q9H5I1).
Response: 0.00411

Query: Queued: `COc1cc(OCCCN(C)C)c(-c2cn3ccc(N4CCCN(S(=O)(=O)N(C)C)CC4)cc3n2)cc1Cl`
Response: 0.0194

Query: Moving on to the next compound: `COc1cc(OC)c(-c2cn3ccc(C4=CCC5(CC4)OCCO5)cc3n2)cc1Cl`
Response: 0.0633

Query: How about `COc1cc(OC)c(-c2cn3ccc(N4CCN(CCC(=O)O)CC4)cc3n2)cc1Cl` ?
Response: 0.0137

Query: Check COc1cc(OC)c(-c2cn3ccc(N4CCC(NC(=O)[C@H](CCC(N)=O)NC(=O)OC(C)(C)C)C4)cc3n2)cc1Cl (some centres unmarked) too.
Response: 0.00489

Query: Try this compound too: `COc1cc(OC)c(-c2cn3ccc(N4CCN(C(C)C)CC4)cc3n2)cc1Cl`
Response: 0.0136

Query: `COc1cc(OC)c(-c2cn3ccc(N4CCN(CC#N)CC4)cc3n2)cc1Cl` , same question.
Response: 0.00807

Query: Follow-up item: `COc1cc(OCCCN(C)C)c(-c2cn3ccc(N4CCOCC4)cc3n2)cc1Cl`
Response: 0.0338

Query: Try this compound next: `COc1cc(OC)c(-c2cn3ccc(-c4ccc(C(=O)NCCNCCNC(=O)OC(C)(C)C)cc4)cc3n2)cc1Cl`
Response: 0.0408
